Provide the recorded AC50 for the entries that follow.
- measured_on: 5-hydroxytryptamine receptor 1A (Homo sapiens)
- Sequence (P08908 whole entry): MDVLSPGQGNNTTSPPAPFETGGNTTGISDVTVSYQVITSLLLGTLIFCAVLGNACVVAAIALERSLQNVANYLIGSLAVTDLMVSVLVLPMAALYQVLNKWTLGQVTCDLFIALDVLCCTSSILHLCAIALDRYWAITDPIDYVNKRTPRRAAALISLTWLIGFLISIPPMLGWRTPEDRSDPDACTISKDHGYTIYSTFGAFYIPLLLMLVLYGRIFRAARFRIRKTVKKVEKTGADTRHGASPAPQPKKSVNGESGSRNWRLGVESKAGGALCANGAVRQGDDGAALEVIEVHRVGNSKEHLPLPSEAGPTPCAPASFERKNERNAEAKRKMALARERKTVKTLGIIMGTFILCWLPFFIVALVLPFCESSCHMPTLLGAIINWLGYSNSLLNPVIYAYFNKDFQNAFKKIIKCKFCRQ

Below, 5 compounds whose answers are already recorded.
{"columns": ["compound", "AC50"],
 "data": [
  ["O=C(O)COC(=O)Cc1ccccc1Nc1c(Cl)cccc1Cl [ACECLOFENAC]", "> 10 µM"],
  ["CN(C)CCCC1(c2ccc(F)cc2)OCc2cc(C#N)ccc21 (centres undefined) [CITALOPRAM]", "> 10 µM"],
  ["N=C(N)NC(=O)c1nc(Cl)c(N)nc1N [AMILORIDE]", "> 10 µM"],
  ["Cc1ccc(O)c([C@H](CCN(C(C)C)C(C)C)c2ccccc2)c1 [TOLTERODINE]", "> 10 µM"],
  ["NCC1(CC(=O)O)CCCCC1 [GABAPENTIN]", "> 10 µM"]
]}

Here are 3 compounds. What values of AC50 were reported for them?
1. CC1Cc2ccccc2N1NC(=O)c1ccc(Cl)c(S(N)(=O)=O)c1 (centres undefined) [INDAPAMIDE]
2. CC(NC(C)(C)C)C(=O)c1cccc(Cl)c1 (centres undefined) [BUPROPION]
3. CCOc1cc2ncc(C#N)c(Nc3ccc(OCc4ccccn4)c(Cl)c3)c2cc1NC(=O)/C=C/CN(C)C [NERATINIB]

Data returned:
1. > 10 µM
2. > 10 µM
3. > 10 µM

Items follow; give AC50 for each.
1. COc1cccc2c1C(=O)c1c(O)c3c(c(O)c1C2=O)C[C@@](O)(C(=O)CO)C[C@@H]3O[C@H]1C[C@H](N)[C@H](O)[C@H](C)O1 [DOXORUBICIN]
2. Oc1cc(O)c2c(c1)O[C@H](c1ccc(O)c(O)c1)[C@@H](O)C2 [CIANIDANOL]
3. Nc1cc(N2CCCCC2)nc(N)[n+]1[O-] [MINOXIDIL]
4. C[C@H](CS)C(=O)N1CCC[C@H]1C(=O)O [CAPTOPRIL]
5. CCN(CC)C(C)C(=O)c1ccccc1 (centres undefined) [DIETHYLPROPION]
6. C[C@]12CCC(=O)C=C1CC[C@H]1[C@@H]3CC[C@](O)(C(=O)CO)[C@@]3(C)C[C@H](O)[C@@]12F [FLUDROCORTISONE]
7. CC(=O)Oc1ccccc1C(=O)O [ASPIRIN]
8. CCN(C(C)=O)c1cccc(-c2ccnc3c(C#N)cnn23)c1 [ZALEPLON]

Data returned:
1. > 10 µM
2. > 10 µM
3. > 10 µM
4. > 10 µM
5. > 10 µM
6. > 10 µM
7. > 10 µM
8. > 10 µM

These entries and their values trace back to ChEMBL document CHEMBL5291721.
